Each recorded value in this set is attributed to patent US20220009894A1.

# assay_target: RORγt-LBD (Homo sapiens, UniProt P51449)
# Sequence (P51449 269-508 limits assumed, species assumed): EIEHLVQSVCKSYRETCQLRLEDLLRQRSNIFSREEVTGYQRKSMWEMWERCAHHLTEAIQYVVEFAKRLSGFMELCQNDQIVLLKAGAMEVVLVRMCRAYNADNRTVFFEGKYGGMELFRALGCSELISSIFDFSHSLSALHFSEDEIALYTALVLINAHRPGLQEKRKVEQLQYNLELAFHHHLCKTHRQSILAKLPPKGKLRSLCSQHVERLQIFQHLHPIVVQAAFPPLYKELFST
# test_description: Time-resolved fluorescence resonance energy-transfer assay (TR-FRET), co-activator peptide recruitment
# Assay type: biochemical
# Design: unit not given here
# assay_conditions: upper activation limit; His-RORγt-LBD, SRC peptide
quantity_measured: TR-FRET Biochemical Amax

INSERT INTO assay_data (molecule, result_value) VALUES
  ('CC1(C)C=C(c2ccc3c(c2)N(S(=O)(=O)c2cccc(C(F)(F)F)c2)C[C@@H]2CNCCN32)CC(C)(C)O1', 0.74),
  ('NS(=O)(=O)N1CCN2c3ccc(/C=C/c4c(Cl)cccc4C(F)(F)F)cc3N(S(=O)(=O)c3cccc(C(F)(F)F)c3)C[C@@H]2C1', 1.03),
  ('C/C(=C\c1ccc2c(c1)N(S(=O)(=O)c1cccc(C(F)(F)F)c1)C[C@@H]1CN(C(C)C(=O)O)CCN21)c1c(F)cccc1Cl (some centres unmarked)', 0.84),
  ('C/C(=C\c1ccc2c(c1)N(S(=O)(=O)c1cccc(C(F)(F)F)c1)C[C@@H]1CN(C(C)(CO)CO)CCN21)c1c(F)cccc1Cl', 0.97),
  ('CC(C)OC(=O)CN1CCN2c3ccc(/C=C/c4c(Cl)cccc4C(F)(F)F)cc3N(S(=O)(=O)c3cccc(C(F)(F)F)c3)C[C@@H]2C1', 0.77);
